# Tested on: MET
# ASSAY_PROCEDURE: MET biochemical kinase assay
# Parameters: species or system human; concentration or dose not given beside the values
The entries below are paired with their reported Met Kinase % Inhibition.
// note: answer is a bare numeric in %

Cc1c(Br)ccc2c1C(=Cc1ccc([N+](=O)[O-])cc1)C(=O)N2    48.3

Quick check: Met Kinase % Inhibition of O=C1Nc2ccc(S(=O)(=O)Nc3ccc(C(F)(F)F)cc3)cc2C1=Cc1coc2ccccc2c1=O ?
45.2

Same thing, different molecule: CN(C)c1ccc(C=C2C(=O)Nc3ccc(S(=O)(=O)Nc4ccc(C(F)(F)F)cc4)cc32)cc1
80.0

Same thing, different molecule: O=C1Nc2ccc(S(=O)(=O)N3CCOCC3)cc2C1=Cc1ccc(Cl)c([N+](=O)[O-])c1
28.4
